B1: DVL3 (parent)
chain: YNPHPGFPELGYSYGGGSASSQHS

Variants of: B1
test.name: protein stability index of a GFP-peptide fusion (GPS, HEK-293T) (PSI 1-6); higher = more stable;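 note: lentivirally expressed fusions sorted by FACS into six bins by GFP to DsRed ratio, PSI derived from sequencing read proportions per bin multiplied by bin number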
test.context: c terminus: a fixed tail appended
Below: a set of entries, each annotated with reported protein stability index.
Form rule: numeric answer, no unit written next to it.

[
  {
    "variant.name": "L10P",
    "test.value": 3.04
  }
]

(Q) Which protein stability index is listed for E9I ?
(A) 1.18

(Q) And for Y14I ?
(A) 2.64

(Q) And for H23L ?
(A) 2.86

(Q) And for Y14N ?
(A) 3.59

(Q) And for P3V ?
(A) 3.08

(Q) And for S13F ?
(A) 1.95

(Q) And for Y14Q ?
(A) 3.15
